Assay: total protein half-life in vivo (active degradation + dilution); higher = more stable protein
Details: wild type E. coli NCM3722; growth: N-lim chemostat; doubling time 12 h
valueType: total protein half-life in vivo (h)
Express it in h; write the number only.

Would you mind telling me what total protein half-life in vivo value was observed for `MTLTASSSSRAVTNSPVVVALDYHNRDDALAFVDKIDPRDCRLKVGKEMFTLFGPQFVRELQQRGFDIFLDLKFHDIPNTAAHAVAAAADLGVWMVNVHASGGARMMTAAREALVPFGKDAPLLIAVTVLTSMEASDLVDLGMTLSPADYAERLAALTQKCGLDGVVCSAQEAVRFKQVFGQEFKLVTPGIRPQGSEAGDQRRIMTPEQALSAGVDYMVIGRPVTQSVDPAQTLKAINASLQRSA` ?
8.44

Requested field: total protein half-life in vivo. Item: `MRLCDRDIEAWLDEGRLSINPRPPVERINGATVDVRLGNKFRTFRGHTAAFIDLSGPKDEVSAALDRVMSDEIVLDEGEAFYLHPGELALAVTLESVTLPADLVGWLDGRSSLARLGLMVHVTAHRIDPGWSGCIVLEFYNSGKLPLALRPGMLIGALSFEPLSGPAVRPYNRREDAKYRNQQGAVASRIDKD`
4.96

// lookup total protein half-life in vivo for MTIKLIVGLANPGAEYAATRHNAGAWFVDLLAERLRAPLREEAKFFGYTSRVTLGGEDVRLLVPTTFMNLSGKAVAAMASFFRINPDEILVAHDELDLPPGVAKFKLGGGHGGHNGLKDIISKLGNNPNFHRLRIGIGHPGDKNKVVGFVLGKPPVSEQKLIDEAIDEAARCTEMWFTDGLTKATNRLHAFKAQ [P0A7D1]
8.06

###

Assignment: determine reported total protein half-life in vivo for the given sequences.
Experiment: total protein half-life in vivo (active degradation + dilution); higher = more stable protein
Conditions: wild type E. coli NCM3722; growth: N-lim chemostat; doubling time 6 h
Numbers only here, please. The scale is h.

Bench note: what total protein half-life in vivo did MQEIMQFVGRHPILSIAWIALLVAVLVTTFKSLTSKVKVITRGEATRLINKEDAVVVDLRQRDDFRKGHIAGSINLLPSEIKANNVGELEKHKDKPVIVVDGSGMQCQEPANALTKAGFAQVFVLKEGVAGWAGENLPLVRGK [P0AG27] show?
5.96

Requested field: total protein half-life in vivo. Item: MAYFLDFDERALKEWRKLGSTVREQLKKKLVEVLESPRIEANKLRGMPDCYKIKLRSSGYRLVYQVIDEKVVVFVISVGKRERSEVYSEAVKRIL [P0C077]
2.58

Item `MATLKDIAIEAGVSLATVSRVLNDDPTLNVKEETKHRILEIAEKLEYKTSSARKLQTGAVNQHHILAIYSYQQELEINDPYYLAIRHGIETQCEKLGIELTNCYEHSGLPDIKNVTGILIVGKPTPALRAAASALTDNICFIDFHEPGSGYDAVDIDLARISKEIIDFYINQGVNRIGFIGGEDEPGKADIREVAFAEYGRLKQVVREEDIWRGGFSSSSGYELAKQMLAREDYPKALFVASDSIAIGVLRAIHERGLNIPQDISLISVNDIPTARFTFPPLSTVRIHSEMMGSQGVNLVYEKARDGRALPLLVFVPSKLKLRGTTR` has what recorded total protein half-life in vivo?
5.07

Look up total protein half-life in vivo: `MAAKDRIQAIKQMVANDKKVTVSNLSGIFQVTEETIRRDLEKLEDEGFLTRTYGGAVLNTAMLTENIHFYKRASSFYEEKQLIARKALPFIDNKTTMAADSSSTVMELLKLLQDRSGLTLLTNSAEAIHVLAQSEIKVVSTGGELNKNTLSLQGRITKEIIRRYHVDIMVMSCKGLDINSGALDSNEAEAEIKKTMIRQATEVALLVDHSKFDRKAFVQLADFSHINYIITDKSPGAEWIAFCKDNNIQLVW`
5.5

Returns the measured total protein half-life in vivo for the input sequence. Input: `MRVLIVKTSSMGDVLHTLPALTDAQQAIPGIKFDWVVEEGFAQIPSWHAAVERVIPVAIRRWRKAWFSAPIKAERKAFREALQAENYDAVIDAQGLVKSAALVTRLAHGVKHGMDWQTAREPLASLFYNRKHHIAKQQHAVERTRELFAKSLGYSKPQTQGDYAIAQHFLTNLPTDAGEYAVFLHATTRDDKHWPEEHWRELIGLLADSGIRIKLPWGAPHEEERAKRLAEGFAYVEVLPKMSLEGVARVLAGAKFVVSVDTGLSHLTAALDRPNITVYGPTDPGLIGGYGKNQMVCRAPRENLINLNSQAVLEKLSSL`
5.72

Could you tell me which total protein half-life in vivo is on file for MCTTCGCGEGNLYIEGDEHNPHSAFRSAPFAPAARPKMKITGIKAPEFTPSQTEEGDLHYGHGEAGTHAPGMSQRRMLEVEIDVLDKNNRLAERNRARFAARKQLVLNLVSSPGSGKTTLLTETLMRLKDSVPCAVIEGDQQTVNDAARIRATGTPAIQVNTGKGCHLDAQMIADAAPRLPLDDNGILFIENVGNLVCPASFDLGEKHKVAVLSVTEGEDKPLKYPHMFAAASLMLLNKVDLLPYLNFDVEKCIACAREVNPEIEIILISATSGEGMDQWLNWLETQRCA [P0AAN3] ?
3.14

From: the supplement of paper PMC11246515
